B1: H2-Kb / B15 (parent complex)
chain 1: QQQVRQSPQSLTVWEGETAILNCSYENSAFDYFPWYQQFPGEGPALLISILSVSDKKEDGRFTIFFNKREKKLSLHIADSQPGDSATYFCAASAASNNRLTLGKGTQVVVLP
chain 2: DSGVVQSPRHIIKEKGGRSVLTCIPISGHSNVVWYQQTLGKELKFLIQHYEKVERDKGFLPSRFSVQQFDDYHSEMNMSALELEDSAMYFCASSRRADAEQFFGPGTRLTVL
chain 3: not shown
chain 4: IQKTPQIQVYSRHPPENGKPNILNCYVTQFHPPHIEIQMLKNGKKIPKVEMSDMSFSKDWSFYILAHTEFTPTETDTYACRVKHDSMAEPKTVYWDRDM
chain 5: SIINFEKL

variants of: B1; test: % of reporter cells activated (NFAT-GFP), raw; note: test concentration or dose not given here
Entries and their ratio to parent

# annotated cases, reported ratio to parent shown
> print(dat)
    variant.id         endpoint  data.value
1  chain 5 F5P  ratio to parent       0.829
2  chain 5 K7Y  ratio to parent       0.383

Incoming: Form field: reported ratio to parent of chain 5 K7W
Outgoing: 0.836

Incoming: Form field: reported ratio to parent of chain 5 L8A
Outgoing: 0.833

Incoming: Form field: reported ratio to parent of chain 5 I3R
Outgoing: 0.339

Incoming: Form field: reported ratio to parent of chain 5 I3M
Outgoing: 0.891

Incoming: Form field: reported ratio to parent of chain 5 N4F
Outgoing: 0.202

Incoming: Form field: reported ratio to parent of chain 5 S1V
Outgoing: 0.199

Incoming: Form field: reported ratio to parent of chain 5 S1Y
Outgoing: 0.727

Incoming: Form field: reported ratio to parent of chain 5 K7S
Outgoing: 0.774
